Test system: mock-infected MT-4 cells
Experiment: Cytotoxicity based on viability of mock-infected host cells (MTT method)
Assay type: cell-based
Details: mock-infected MT-4 cells, MTT method, 4 or 5 days at 37° C.
Experimental: MT-4 cells were suspended in culture media at 2.5×10^5 cells/ml and infected with 1000 CCID50 (50% cell culture infective dose) of HIV. […] After 4 or 5 days incubation at 37° C., efficacy of the compounds was determined by the MTT method. Cytotoxicity of the compounds was assessed in parallel with their antiviral activity, based on viability of mock-infected host cells as determined by the MTT method.
Let's look at some molecules and their measured CD50.
property label: CD50 (µg/mL)

> print(dat)
                                   molecule  units  lt.gt.eq  test.result
1  Cc1cc(C)cc(Sc2c(C(C)C)c(=O)[nH]c(=O)n2CC2CC2)c1 [Example 2]  µg/mL         =        12.43
2  Cc1cn([C@H]2C[C@H](N=[N+]=[N-])[C@@H](CO)O2)c(=O)[nH]c1=O [AZT]  µg/mL         =         0.70
3  CCc1c(Sc2cc(C)cc(C)c2)n(Cc2ccc3ccccc3n2)c(=O)[nH]c1=O [Example 131]  µg/mL         =        10.60
4  CCc1c(Oc2cc(C)cc(C)c2)n(Cc2ccccn2)c(=O)[nH]c1=O [Example 111]  µg/mL         >       100.00
5  Cc1cc(C)cc(Sc2c(C(C)C)c(=O)[nH]c(=O)n2Cc2ccccn2)c1 [Example 110]  µg/mL         =         9.61
6  CCc1c(Oc2cc(C)cc(C)c2)n(Cn2nnc3ccccc32)c(=O)[nH]c1=O [Example 141]  µg/mL         =        27.60
7  CCc1c(Sc2cc(C)cc(C)c2)n(Cc2nc3ccccc3o2)c(=O)[nH]c1=O [Example 145]  µg/mL         >       100.00
8  CCc1c(Oc2cc(C)cc(C)c2)n(Cc2ccc(OC(F)(F)F)cc2)c(=O)[nH]c1=O [Example 33]  µg/mL         >       100.00

====

system: HIV; assay: microbe, parasite or virus in culture; type: cell-based; settings: Human immunodeficiency virus 1, MT4; HIV-infected MT-4 cells, MTT method, 4 or 5 days at 37° C.; read-out: ED50 (the source's name)
Simple rule here: EC50 less than 8 ng/mL is TRUE, otherwise FALSE.

> print(dat)
                            chemical.smiles  label.value
1  Cc1cc(C)cc(Sc2c(C(C)C)c(=O)[nH]c(=O)n2Cc2ccccn2)c1        FALSE
2  CCc1c(C(=O)c2cc(C)cc(C)c2)n(Cc2ccccn2)c(=O)[nH]c1=O        FALSE
3  Cc1cc(C)cc(Oc2c(C(C)C)c(=O)[nH]c(=O)n2Cc2ccc3c(c2)C(=O)c2ccccc2C3=O)c1        FALSE
4  CCc1c(Sc2cc(C)cc(C)c2)n(Cc2cccc(Cl)n2)c(=O)[nH]c1=O        FALSE
5  Cc1cc(C)cc(C(=O)c2c(C(C)C)c(=O)[nH]c(=O)n2Cc2cc(F)ccc2F)c1         TRUE
6  CCc1c(C(=O)c2cc(C)cc(C)c2)n(Cc2ccccc2C#N)c(=O)[nH]c1=O         TRUE
7  CCc1c(C(=O)c2cc(C)cc(C)c2)n(CC2CC2)c(=O)[nH]c1=O         TRUE
